Assignment: determine reported Basal_Viability ATP SW480 IC50/EC50 for the given compounds.
Test system: SW480
procedure.text: cells
Assay type: cell-based
conditions.used: assay number 24; basal

So for Cc1ccc(C(=O)c2cc(O)c(O)c([N+](=O)[O-])c2)cc1 , the logged Basal_Viability ATP SW480 IC50/EC50 turned out to be 4.644 µM

So for CCc1cccc2c3c([nH]c12)C(CC)(CC(=O)O)OCC3 (stereo not shown) , the logged Basal_Viability ATP SW480 IC50/EC50 turned out to be > 20 µM

So for COc1cccc2c1C(=O)c1c(O)c3c(c(O)c1C2=O)C[C@@](O)(C(=O)CO)C[C@@H]3O[C@H]1C[C@H](N)[C@H](O[C@@H]2CCCCO2)[C@H](C)O1 , the logged Basal_Viability ATP SW480 IC50/EC50 turned out to be 7.822 µM

So for CCCCN1CCCC1C(=O)Nc1c(C)cc(C)cc1C (stereo not shown) , the logged Basal_Viability ATP SW480 IC50/EC50 turned out to be > 20 µM

So for CCCCCCCCOC(=O)c1ccccc1C(=O)OCCCCCCCC , the logged Basal_Viability ATP SW480 IC50/EC50 turned out to be > 20 µM

So for CN1CCN(C2Cc3ccccc3Sc3ccc(Cl)cc32)CC1.O=C(O)/C=C\C(=O)O (stereo not shown) , the logged Basal_Viability ATP SW480 IC50/EC50 turned out to be 6.3146 µM

So for CCN(CC)C(=O)c1cccnc1 , the logged Basal_Viability ATP SW480 IC50/EC50 turned out to be > 20 µM

So for c1ccc2c(c1)Sc1ccccc1N2CC1CN2CCC1CC2 (stereo not shown) , the logged Basal_Viability ATP SW480 IC50/EC50 turned out to be 5.431 µM

So for CCC(C(=O)OCCOCCN(CC)CC)c1ccccc1.O=C(O)CC(O)(CC(=O)O)C(=O)O (stereo not shown) , the logged Basal_Viability ATP SW480 IC50/EC50 turned out to be > 20 µM

So for Clc1ccc(C(Cn2ccnc2)OCc2ccsc2Cl)c(Cl)c1 (stereo not shown) , the logged Basal_Viability ATP SW480 IC50/EC50 turned out to be > 20 µM

So for O=C(CCCN1CCC(O)(c2cccc(C(F)(F)F)c2)CC1)c1ccc(F)cc1 , the logged Basal_Viability ATP SW480 IC50/EC50 turned out to be > 20 µM

So for CN(C)CCOC(c1ccccc1)c1ccc(Br)cc1 (stereo not shown) , the logged Basal_Viability ATP SW480 IC50/EC50 turned out to be > 20 µM

So for CCC1Nc2cc(Cl)c(S(N)(=O)=O)cc2S(=O)(=O)N1 (stereo not shown) , the logged Basal_Viability ATP SW480 IC50/EC50 turned out to be > 6.6667 µM
